details: in 2-propoxyethanol, 308.15 K
quantity-name: solubility (mole fraction)
Response field accepts a number only; no unit should be typed.

Sample O=C1C2C3C=CC(C3)C2C(=O)N1O (stereo unspecified) — what was its solubility (mole fraction)?
0.0896

###

conditions: in acetonitrile, 293.15 K
quantity-name: solubility (mole fraction)

Sample O=C1C2C3C=CC(C3)C2C(=O)N1O (stereo unspecified) — what was its solubility (mole fraction)?
0.0258

###

details: in 1,4-dioxane, 298.15 K
quantity-name: solubility (mole fraction)
Response field accepts a number only; no unit should be typed.

Sample O=C1C2C3C=CC(C3)C2C(=O)N1O (stereo unspecified) — what was its solubility (mole fraction)?
0.0963

###

settings: in 2-methoxyethanol, 308.15 K
quantity-name: solubility (mole fraction)
Response field accepts a number only; no unit should be typed.

Sample O=C1C2C3C=CC(C3)C2C(=O)N1O (stereo unspecified) — what was its solubility (mole fraction)?
0.164

###

conditions: in 2-butoxyethanol, 318.15 K
quantity-name: solubility (mole fraction)
Response field accepts a number only; no unit should be typed.

Sample O=C1C2C3C=CC(C3)C2C(=O)N1O (stereo unspecified) — what was its solubility (mole fraction)?
0.0989

###

details: in 1,4-dioxane, 313.15 K
quantity-name: solubility (mole fraction)
Response field accepts a number only; no unit should be typed.

Sample O=C1C2C3C=CC(C3)C2C(=O)N1O (stereo unspecified) — what was its solubility (mole fraction)?
0.128

###

conditions: in isopropanol, 288.15 K
quantity-name: solubility (mole fraction)

Sample O=C1C2C3C=CC(C3)C2C(=O)N1O (stereo unspecified) — what was its solubility (mole fraction)?
0.0287

###

conditions: in ethanol, 278.15 K
quantity-name: solubility (mole fraction)
Response field accepts a number only; no unit should be typed.

Sample O=C1C2C3C=CC(C3)C2C(=O)N1O (stereo unspecified) — what was its solubility (mole fraction)?
0.0303

###

conditions: in ethyl acetate, 283.15 K
quantity-name: solubility (mole fraction)

Sample O=C1C2C3C=CC(C3)C2C(=O)N1O (stereo unspecified) — what was its solubility (mole fraction)?
0.00912

###

conditions: in methanol, 323.15 K
quantity-name: solubility (mole fraction)
Response field accepts a number only; no unit should be typed.

Sample O=C1C2C3C=CC(C3)C2C(=O)N1O (stereo unspecified) — what was its solubility (mole fraction)?
0.181

###

conditions: in 2-butoxyethanol, 283.15 K
quantity-name: solubility (mole fraction)

Sample O=C1C2C3C=CC(C3)C2C(=O)N1O (stereo unspecified) — what was its solubility (mole fraction)?
0.0408

###

conditions: in acetonitrile, 323.15 K
quantity-name: solubility (mole fraction)
Response field accepts a number only; no unit should be typed.

Sample O=C1C2C3C=CC(C3)C2C(=O)N1O (stereo unspecified) — what was its solubility (mole fraction)?
0.0587

###

details: in isopropanol, 313.15 K
quantity-name: solubility (mole fraction)
Response field accepts a number only; no unit should be typed.

Sample O=C1C2C3C=CC(C3)C2C(=O)N1O (stereo unspecified) — what was its solubility (mole fraction)?
0.0672

###

settings: in isopropanol, 283.15 K
quantity-name: solubility (mole fraction)
Response field accepts a number only; no unit should be typed.

Sample O=C1C2C3C=CC(C3)C2C(=O)N1O (stereo unspecified) — what was its solubility (mole fraction)?
0.0238

###

details: in 2-methoxyethanol, 303.15 K
quantity-name: solubility (mole fraction)
Response field accepts a number only; no unit should be typed.

Sample O=C1C2C3C=CC(C3)C2C(=O)N1O (stereo unspecified) — what was its solubility (mole fraction)?
0.154

###

conditions: in 2-methoxyethanol, 323.15 K
quantity-name: solubility (mole fraction)
Response field accepts a number only; no unit should be typed.

Sample O=C1C2C3C=CC(C3)C2C(=O)N1O (stereo unspecified) — what was its solubility (mole fraction)?
0.205

###

settings: in acetonitrile, 303.15 K
quantity-name: solubility (mole fraction)
Response field accepts a number only; no unit should be typed.

Sample O=C1C2C3C=CC(C3)C2C(=O)N1O (stereo unspecified) — what was its solubility (mole fraction)?
0.034

###

settings: in 2-ethoxyethanol, 298.15 K
quantity-name: solubility (mole fraction)
Response field accepts a number only; no unit should be typed.

Sample O=C1C2C3C=CC(C3)C2C(=O)N1O (stereo unspecified) — what was its solubility (mole fraction)?
0.101

###

conditions: in 2-methoxyethanol, 293.15 K
quantity-name: solubility (mole fraction)
Response field accepts a number only; no unit should be typed.

Sample O=C1C2C3C=CC(C3)C2C(=O)N1O (stereo unspecified) — what was its solubility (mole fraction)?
0.131

###

conditions: in ethanol, 303.15 K
quantity-name: solubility (mole fraction)
Response field accepts a number only; no unit should be typed.

Sample O=C1C2C3C=CC(C3)C2C(=O)N1O (stereo unspecified) — what was its solubility (mole fraction)?
0.0703

###

conditions: in 2-ethoxyethanol, 323.15 K
quantity-name: solubility (mole fraction)
Response field accepts a number only; no unit should be typed.

Sample O=C1C2C3C=CC(C3)C2C(=O)N1O (stereo unspecified) — what was its solubility (mole fraction)?
0.158

###

conditions: in acetone, 318.15 K
quantity-name: solubility (mole fraction)
Response field accepts a number only; no unit should be typed.

Sample O=C1C2C3C=CC(C3)C2C(=O)N1O (stereo unspecified) — what was its solubility (mole fraction)?
0.0938

###

settings: in acetone, 283.15 K
quantity-name: solubility (mole fraction)
Response field accepts a number only; no unit should be typed.

Sample O=C1C2C3C=CC(C3)C2C(=O)N1O (stereo unspecified) — what was its solubility (mole fraction)?
0.0317

###

conditions: in acetone, 313.15 K
quantity-name: solubility (mole fraction)
Response field accepts a number only; no unit should be typed.

Sample O=C1C2C3C=CC(C3)C2C(=O)N1O (stereo unspecified) — what was its solubility (mole fraction)?
0.0817

###

details: in 2-ethoxyethanol, 308.15 K
quantity-name: solubility (mole fraction)
Response field accepts a number only; no unit should be typed.

Sample O=C1C2C3C=CC(C3)C2C(=O)N1O (stereo unspecified) — what was its solubility (mole fraction)?
0.121

###

details: in 1,4-dioxane, 288.15 K
quantity-name: solubility (mole fraction)
Response field accepts a number only; no unit should be typed.

Sample O=C1C2C3C=CC(C3)C2C(=O)N1O (stereo unspecified) — what was its solubility (mole fraction)?
0.0796
